Recorded values, source patent US12630547B2.

Answer each item with its documented viability at 1 µM.
# Tested on: MOLM-13 cells
# METHOD SUMMARY: Cell viability assay (CELLTITER-GLO), MOLM-13 cells
# Assay type: cell-based
# ASSAY CONTEXT: Homo sapiens, MOLM-13, 72 h; Table 3; compound at 1 μM, 3 days; read-out: Effect on MOLM-13 cell viability (% DMSO)

The following molecules have reported results that may help.
[[record]]
molecule = "CCC(=O)N1CC(N2Cc3ccc(-c4cc(O)cc5ccccc45)cc3N(CCOCCOCCC(=O)NCCOc3cccc4c3C(=O)N(C3CCC(=O)NC3=O)C4=O)C2=O)C1 (stereo not drawn) [Compound 7]"
measured_quantity = "viability at 1 µM"
reported_measurement = "≥ 50%"

[[record]]
molecule = "C=CC(=O)N1CCN(c2ncnc3c(F)c(-c4c(O)cccc4F)c(Cl)cc23)CC1 [A, reference compound]"
measured_quantity = "viability at 1 µM"
reported_measurement = "≥ 50%"

[[record]]
molecule = "CCC(=O)N1CC(N2Cc3ccc(-c4cc(O)cc5ccccc45)cc3N(CCNCc3ccc(OCc4scc5c4CN(C4CCC(=O)NC4=O)C5=O)cc3)C2=O)C1 (stereo not drawn) [Compound 4]"
measured_quantity = "viability at 1 µM"
reported_measurement = "10 to 25%"


Below are 3 molecules. Give each one its viability at 1 µM.
1. C=CC(=O)N1CC(N2Cc3ccc(-c4cc(O)cc5ccccc45)cc3N(CCOCCC(=O)NCCOc3cccc4c3C(=O)N(C3CCC(=O)NC3=O)C4=O)C2=O)C1 (stereo not drawn) [Compound 10]
2. CCC(=O)N1CCN(c2ncnc3c(F)c(-c4c(F)cccc4OCCOCCOCCC(=O)NCCNc4cccc5c4C(=O)N(C4CCC(=O)NC4=O)C5=O)c(Cl)cc23)CC1 (stereo not drawn) [Compound 6]
3. CCC(=O)N1CCN(c2ncnc3c(F)c(-c4c(F)cccc4OCCOCCOCCC(=O)NCCOc4cccc5c4C(=O)N(C4CCC(=O)NC4=O)C5=O)c(Cl)cc23)CC1 (stereo not drawn) [Compound 8]

≥ 50%
≥ 50%
≥ 50%

###

# Test system: MOLM-13 cells
# METHOD SUMMARY: Cell viability assay (CELLTITER-GLO), MOLM-13 cells
# Type: cell-based
# ASSAY CONTEXT: Homo sapiens, MOLM-13, 72 h; Table 2; compound at 10 μM, 3 days; read-out: Effect on MOLM-13 cell viability (% DMSO)
Answer each item with its documented viability at 10 µM.

The following compounds have reported results that may help.
[[record]]
compound = "CCC(=O)N1CCN(c2ncnc3c(F)c(-c4c(F)cccc4OCCCCCCCCCN4CCC(c5cc(F)cc6c5CN(C5CCC(=O)NC5=O)C6=O)CC4)c(Cl)cc23)CC1 (stereo not drawn) [Compound 61]"
target_entity = "MOLM-13 cells"
measured_quantity = "viability at 10 µM"
reported_measurement = "< 10%"

[[record]]
compound = "C=CC(=O)N1C[C@@H]2C(=O)N(CCCCCCCN3CCC(c4cc(F)cc5c4CN(C4CCC(=O)NC4=O)C5=O)CC3)c3cnc4c(F)c(-c5c(O)cccc5F)c(Cl)cc4c3N2C[C@H]1C (stereo partly drawn) [Compound 66]"
target_entity = "MOLM-13 cells"
measured_quantity = "viability at 10 µM"
reported_measurement = "< 10%"


Look at this compound and give its reported viability at 10 µM. C=CC(=O)N1CC(c2nc3ccc(-c4cc(O)cc5ccccc45)cc3c(=O)n2CC(=O)NCCOCCOCCOCCNc2cccc3c2C(=O)N(C2CCC(=O)NC2=O)C3=O)C1 (stereo not drawn) [Compound 17]
≥ 50%

###

# System: MOLM-13 cells
# METHOD SUMMARY: Cell viability assay (CELLTITER-GLO), MOLM-13 cells
# Format: cell-based
# ASSAY CONTEXT: Homo sapiens, MOLM-13, 72 h; Table 2; compound at 10 μM, 3 days; read-out: Effect on MOLM-13 cell viability (% DMSO)
MEASURED QUANTITY: viability at 10 µM

[[record]]
molecule = "CCC(=O)N1CCN(c2ncnc3c(F)c(-c4c(F)cccc4OCCCCCCCN4CCC(c5cc(F)cc6c5CN(C5CCC(=O)NC5=O)C6=O)CC4)c(Cl)cc23)[C@@H](C)C1 (stereo partly shown)"
reported_measurement = "< 10%"

[[record]]
molecule = "CC(=O)N1CCN(c2ncnc3c(F)c(-c4c(F)cccc4OCCOCCOCCOCCNc4cccc5c4C(=O)N(C4CCC(=O)NC4=O)C5=O)c(Cl)cc23)CC1 (stereo not shown)"
reported_measurement = "≥ 50%"

[[record]]
molecule = "CCC(=O)N1CCN(c2ncnc3c(F)c(-c4c(F)cccc4OCCOCCOCCC(=O)NCCNc4cccc5c4CN(C4CCC(=O)NC4=O)C5=O)c(Cl)cc23)CC1 (stereo not shown)"
reported_measurement = "≥ 50%"

[[record]]
molecule = "C=CC(=O)N1CCN(c2nc(=O)n(-c3ccccc3C(C)C)c3nc(-c4c(F)cccc4OCCCCCCCN4CCC(c5cc(F)cc6c5CN(C5CCC(=O)NC5=O)C6=O)CC4)c(F)cc23)[C@@H](C)C1 (stereo partly shown)"
reported_measurement = "< 10%"

[[record]]
molecule = "C=CC(=O)N1CC(N2Cc3ccc(-c4cc(O)cc5ccccc45)cc3N(CCOCCOCCOCCNc3ccc4c(c3)C(=O)N(C3CCC(=O)NC3=O)C4=O)C2=O)C1 (stereo not shown)"
reported_measurement = "< 10%"


Below are 5 molecules. Give each one its viability at 10 µM.
1. C=C(Cl)C(=O)N1CCN(c2ncnc3c(F)c(-c4c(F)cccc4OCCCCCCCN4CCC(c5cc6c(cc5F)C(=O)N(C5CCC(=O)NC5=O)C6)CC4)c(Cl)cc23)C[C@H]1CC#N (stereo partly shown)
2. CCC(=O)N1CCN(c2ncnc3c(F)c(-c4c(F)cccc4OCCCCCCCNCc4ccc(OCc5scc6c5CN([C@H]5CCC(=O)NC5=O)C6=O)cc4)c(Cl)cc23)CC1
3. CCC(=O)N1CCN(c2ncnc3c(F)c(-c4c(F)cccc4OCCCCCCC(=O)N[C@H](C(=O)N4C[C@H](O)C[C@H]4C(=O)NCc4ccc(-c5scnc5C)cc4)C(C)(C)C)c(Cl)cc23)CC1
4. CCC(=O)N1CCN(c2ncnc3c(F)c(-c4cc(OCCCCCCCN5CCC(c6cc(F)cc7c6CN(C6CCC(=O)NC6=O)C7=O)CC5)ccc4F)c(Cl)cc23)CC1 (stereo not shown)
5. C=CC(=O)N1CCN(c2ncnc3c(F)c(-c4c(F)cccc4OCCCCCCCN4CCC(c5cc6c(cc5F)C(=O)N(C5CCC(=O)NC5=O)C6)CC4)c(Cl)cc23)CC1 (stereo not shown)

< 10%
< 10%
< 10%
< 10%
< 10%

###

# System: MOLM-13 cells
# METHOD SUMMARY: Cell viability assay (CELLTITER-GLO), MOLM-13 cells
# Assay type: cell-based
# ASSAY CONTEXT: Homo sapiens, MOLM-13, 72 h; Table 2; compound at 10 μM, 3 days; read-out: Effect on MOLM-13 cell viability (% DMSO)
Answer each item with its documented viability at 10 µM.

The following compounds have reported results that may help.
[[record]]
compound = "C=C(Cl)C(=O)N1CCN(c2ncnc3c(F)c(-c4c(F)cccc4OCCCCCN4CCC(c5cc(F)cc6c5CN(C5CCC(=O)NC5=O)C6=O)CC4)c(Cl)cc23)CC1 (stereo not shown)"
target_entity = "MOLM-13 cells"
measured_quantity = "viability at 10 µM"
reported_measurement = "< 10%"

[[record]]
compound = "O=C1CCC(N2Cc3c(cc(F)cc3C3CCN(CCCCCCCOc4cccc(F)c4-c4c(Cl)cc5c(N6CCN(C(=O)c7cnc[nH]7)CC6)ncnc5c4F)CC3)C2=O)C(=O)N1 (stereo not shown)"
target_entity = "MOLM-13 cells"
measured_quantity = "viability at 10 µM"
reported_measurement = "< 10%"

[[record]]
compound = "C=CC(=O)N1CCN(c2ncnc3c(F)c(-c4cc(OCCCCCCCN5CCC(c6cc(F)cc7c6CN(C6CCC(=O)NC6=O)C7=O)CC5)ccc4F)c(Cl)cc23)CC1 (stereo not shown)"
target_entity = "MOLM-13 cells"
measured_quantity = "viability at 10 µM"
reported_measurement = "< 10%"

[[record]]
compound = "CCC(=O)N1CCN(c2ncnc3c(F)c(-c4c(F)cccc4OCCc4cn(CCN5CCC(c6cc(F)cc7c6CN(C6CCC(=O)NC6=O)C7=O)CC5)nn4)c(Cl)cc23)CC1 (stereo not shown)"
target_entity = "MOLM-13 cells"
measured_quantity = "viability at 10 µM"
reported_measurement = "≥ 50%"

[[record]]
compound = "CCC(=O)N1CC(N2Cc3ccc(-c4cc(O)cc5ccccc45)cc3N(CC(=O)NCCCCCCCN3CCC(c4cc(F)cc5c4CN(C4CCC(=O)NC4=O)C5=O)CC3)C2=O)C1 (stereo not shown)"
target_entity = "MOLM-13 cells"
measured_quantity = "viability at 10 µM"
reported_measurement = "10 to 25%"

[[record]]
compound = "NC(=O)N1CCN(c2ncnc3c(F)c(-c4c(F)cccc4OCCCCCCCN4CCC(c5cc(F)cc6c5CN(C5CCC(=O)NC5=O)C6=O)CC4)c(Cl)cc23)CC1 (stereo not shown)"
target_entity = "MOLM-13 cells"
measured_quantity = "viability at 10 µM"
reported_measurement = "< 10%"

[[record]]
compound = "CCC(=O)N1CC(N2Cc3ccc(-c4cc(O)cc5ccccc45)cc3N(CCNCCCCCCCN3CCC(c4cc(F)cc5c4CN(C4CCC(=O)NC4=O)C5=O)CC3)C2=O)C1 (stereo not shown)"
target_entity = "MOLM-13 cells"
measured_quantity = "viability at 10 µM"
reported_measurement = "≥ 50%"

[[record]]
compound = "C=C(Cl)C(=O)N1CCN(c2ncnc3c(F)c(-c4c(F)cccc4OCCC4CCC(CCN5CCC(c6cc(F)cc7c6CN(C6CCC(=O)NC6=O)C7=O)CC5)CC4)c(Cl)cc23)CC1 (stereo not shown)"
target_entity = "MOLM-13 cells"
measured_quantity = "viability at 10 µM"
reported_measurement = "< 10%"

[[record]]
compound = "CCS(=O)(=O)N1CCN(c2ncnc3c(F)c(-c4c(F)cccc4OCCCCCCCN4CCC(c5cc(F)cc6c5CN(C5CCC(=O)NC5=O)C6=O)CC4)c(Cl)cc23)CC1 (stereo not shown)"
target_entity = "MOLM-13 cells"
measured_quantity = "viability at 10 µM"
reported_measurement = "< 10%"


Alright, here's another compound for you.
Look at this compound and give its reported viability at 10 µM. CCC(=O)Oc1cccc(F)c1-c1c(Cl)cc2c3c(cnc2c1F)N(CCCCCCCN1CCC(c2cc(F)cc4c2CN(C2CCC(=O)NC2=O)C4=O)CC1)C(=O)[C@H]1CN(C(=O)CC)[C@H](C)CN31 (stereo partly shown)
< 10%
